TEST_NAME: Inhibition of D4 receptor (unknown origin)
Design: species or system Homo sapiens
MEASURED_PARAMETER: pIC50
To interpret pIC50, take it as minus log10 of a concentration measured in moles per litre.

pIC50 measured on CCC(C(=O)Nc1sc(C(N)=O)c(C)c1C(=O)OC)c1ccccc1 (stereo unspecified) = 4.87

* * *

System: Vaccinia virus
TEST_NAME: Antiviral activity against Vaccinia virus infected in African green monkey CV-1 cells assessed as reduction in virus-induced cytopathic effect incubated for 5 days by colorimetric analysis
Assay type: functional, organism-based
REPORTED_CONDITIONS: Orthopoxvirus vaccinia, CV-1, 120 h
Give EC50 for every item shown.
# unit: nM | format: bare number

// returns EC50 for CC[C@H]1CN2CCc3cc(OC)c(OC)cc3[C@@H]2C[C@@H]1C[C@H]1NCCc2cc(OC)c(OC)cc21 [EMETINE] with Vaccinia virus; value = 250

// returns EC50 for CCCCCCCCCCCCCC[N+]12CC[N+](CCCC(=O)N[C@@H](Cc3c[nH]cn3)C(=O)O)(CC1)CC2 with Vaccinia virus; value = 400000

// returns EC50 for CO[C@H]1[C@H](O)[C@H](O[C@H]2CC[C@@]3(C)[C@H](CC[C@@H]4[C@@H]3CC[C@]3(C)[C@@H](C5=CC(=O)OC5)CC[C@]43O)C2)O[C@@H](C)[C@@H]1O [NERIIFOLIN] with Vaccinia virus; value = 5000

// returns EC50 for COc1ccc(C[C@H]2NC[C@H](O)[C@H]2OC(C)=O)cc1 [ANISOMYCIN] with Vaccinia virus; value = 250

// returns EC50 for C[C@@H]1O[C@@H](O[C@H]2C[C@@H](O)[C@]3(CO)[C@H]4[C@H](O)C[C@]5(C)[C@@H](C6=CC(=O)OC6)CC[C@]5(O)[C@@H]4CC[C@]3(O)C2)[C@H](O)[C@H](O)[C@H]1O [OUABAIN] with Vaccinia virus; value = 250

// returns EC50 for COc1c(C)c2c(c(O)c1C/C=C(\C)CCC(=O)O)C(=O)OC2 [MYCOPHENOLIC ACID] with Vaccinia virus; value = 1000

// returns EC50 for CCCCCCCCCCCC[N+]12CC[N+](CC#CC[N+]34CC[N+](CCCCCCCCCCCC)(CC3)CC4)(CC1)CC2 with Vaccinia virus; value = 100000

// returns EC50 for CC[C@H]1CN2CCc3cc(OC)c(OC)cc3[C@@H]2CC1C[C@H]1NCCc2cc(O)c(OC)cc21 (stereo partly drawn) with Vaccinia virus; value = 125

// returns EC50 for CC(=O)O[C@H]1C[C@H](O[C@H]2[C@@H](O)C[C@H](O[C@H]3[C@@H](O)C[C@H](O[C@H]4CC[C@@]5(C)[C@H](CC[C@@H]6[C@@H]5C[C@@H](O)[C@]5(C)[C@@H](C7=CC(=O)OC7)CC[C@]65O)C4)O[C@@H]3C)O[C@@H]2C)O[C@H](C)[C@H]1O[C@@H]1O[C@H](CO)[C@@H](O)[C@H](O)[C@H]1O [LANATOSIDE C] with Vaccinia virus; value = 500

// returns EC50 for C[C@@H]1C[C@@H]([C@H](O)CC2CC(=O)NC(=O)C2)C(=O)[C@@H](C)C1 [CYCLOHEXIMIDE] with Vaccinia virus; value = 2000

// returns EC50 for C[C@H]1O[C@@H](O[C@H]2[C@@H](O)C[C@H](O[C@H]3[C@@H](O)C[C@H](O[C@H]4CC[C@@]5(C)[C@H](CC[C@@H]6[C@@H]5C[C@@H](O)[C@]5(C)[C@@H](C7=CC(=O)OC7)CC[C@]65O)C4)O[C@@H]3C)O[C@@H]2C)C[C@H](O)[C@@H]1O [DIGOXIN] with Vaccinia virus; value = 250

// returns EC50 for N=c1ccn2c(n1)O[C@H]1[C@H](O)[C@@H](CO)O[C@H]12 [ANCITABINE] with Vaccinia virus; value = 10000

// returns EC50 for CO[C@H]1C[C@H](O[C@H]2CC[C@]3(C=O)[C@H]4CC[C@]5(C)[C@@H](C6=CC(=O)OC6)CC[C@]5(O)[C@@H]4CC[C@]3(O)C2)O[C@H](C)[C@H]1O [CYMARIN] with Vaccinia virus; value = 250

* * *

Tested on: Vaccinia virus
TEST_NAME: Antiviral activity against wild type Vaccinia virus IHD infected in monkey Vero cells assessed as reduction in plaque formation measured after 7 days
Format: functional, organism-based
REPORTED_CONDITIONS: Orthopoxvirus vaccinia, 168 h
MEASURED_PARAMETER: pEC50
To interpret pEC50, take it as minus log10 of a concentration measured in moles per litre.

// returns pEC50 for C=C(CC)C(=O)c1ccc(OCC(=O)O)c(Cl)c1Cl [ETHACRYNIC ACID] with Vaccinia virus; value = 4.40

* * *

Test system: Vaccinia virus
TEST_NAME: Antiviral activity against Vaccinia virus VG9 infected in African green monkey BSC-1 cells
Format: functional, organism-based, Orthopoxvirus vaccinia
REPORTED_CONDITIONS: bsc-1
MEASURED_PARAMETER: EC50 (µM)
# unit: µM | format: bare number

EC50 measured on RAUWOLFIA SERPENTINA = 9.8

* * *

Tested on: Vaccinia virus
TEST_NAME: Antiviral activity against Vaccinia virus GFP infected in green […] cells assessed as reduction in plaque formation measured after 2.5 days by microscopic analysis
Assay type: functional, organism-based
REPORTED_CONDITIONS: Orthopoxvirus vaccinia, HT-1080, 60 h
MEASURED_PARAMETER: EC50 (µM)
# unit: µM | format: bare number

EC50 measured on O=[N+]([O-])c1cc(/C=N/c2ccccc2/N=C/c2ccc(O)c(O)c2)ccc1O = 10.9

* * *

Give EC50 for every item shown.
Test system: Vaccinia virus
TEST_NAME: Antiviral activity against wild type Vaccinia virus infected in African monkey Vero cells measured after 5 days by MTT assay
Type: functional, organism-based
REPORTED_CONDITIONS: Orthopoxvirus vaccinia, 120 h

EC50 measured on O=c1[nH]c(=O)n([C@H]2C[C@H](O)[C@@H](CO)S2)cc1I = 50 nM

EC50 measured on Cc1cn([C@@]2(C)C[C@H](O)[C@@H](CO)S2)c(=O)[nH]c1=O = 800 nM
